Item-by-item account of Activity
target: Signal peptidase I (Escherichia coli K-12) (UniProt P00803); assay: Inhibition of Escherichia coli type 1 signal peptidase lepB assessed as residual activity at 0.1563 uM preincubated for 10 mins followed by Dabcyl-VGGTATAYGAFSRPGLE-(EDANS)-OH substrate addition measured after 2 hrs by FRET based assay (reference value: 100%)
Sequence (P00803 whole entry): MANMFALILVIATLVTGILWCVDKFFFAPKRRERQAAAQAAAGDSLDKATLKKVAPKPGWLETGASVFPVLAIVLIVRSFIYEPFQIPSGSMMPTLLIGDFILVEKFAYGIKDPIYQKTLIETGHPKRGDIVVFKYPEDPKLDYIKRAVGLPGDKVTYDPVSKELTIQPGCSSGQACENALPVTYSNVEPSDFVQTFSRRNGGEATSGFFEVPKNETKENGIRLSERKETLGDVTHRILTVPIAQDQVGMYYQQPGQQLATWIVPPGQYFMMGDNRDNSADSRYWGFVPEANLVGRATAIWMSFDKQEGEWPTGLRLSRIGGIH
measurement.kind: Activity (%)

smiles_record=CCCCCCc1ccc(-n2cc(C(=O)N[C@@H](CCCN)C(=O)N[C@H](C(=O)N[C@@H](C)C(=O)N[C@H]3Cc4cn(nn4)CCO[C@@H]4C[C@@H]5OB(O[C@@H]5C4)[C@H](C)NC3=O)[C@@H](C)O)ccc2=O)cc1 system_name="Signal peptidase I (Escherichia coli K-12) (UniProt P00803)" measurement_kind=Activity measured_number=90
smiles_record=CCCCCCc1ccc(-c2nc3cc(C(=O)N[C@@H](CCCN)C(=O)N[C@H](C(=O)N[C@@H](C)C(=O)N[C@H]4Cc5cn(nn5)CCO[C@@H]5C[C@@H]6OB(O[C@@H]6C5)[C@H](C)NC4=O)[C@@H](C)O)ccc3[nH]2)cc1 system_name="Signal peptidase I (Escherichia coli K-12) (UniProt P00803)" measurement_kind=Activity measured_number=7.2
smiles_record=CCCCCCc1ccc(-c2ccc(C(=O)N[C@@H](CCCNC(=N)N)C(=O)N[C@H](C(=O)N[C@@H](C)C(=O)N[C@H]3Cc4cn(nn4)CCCN4C[C@@H]5OB(O[C@@H]5C4)[C@H](C)NC3=O)[C@@H](C)O)cc2)cc1 system_name="Signal peptidase I (Escherichia coli K-12) (UniProt P00803)" measurement_kind=Activity measured_number=41.7
